Target: T1, recombinant human IL-6R-extracellular domain (ECD) (human, UniProt P08887 20-365)
T1 construct: extracellular domain; also called IL-6R-ECD
T1 sequence (looked up): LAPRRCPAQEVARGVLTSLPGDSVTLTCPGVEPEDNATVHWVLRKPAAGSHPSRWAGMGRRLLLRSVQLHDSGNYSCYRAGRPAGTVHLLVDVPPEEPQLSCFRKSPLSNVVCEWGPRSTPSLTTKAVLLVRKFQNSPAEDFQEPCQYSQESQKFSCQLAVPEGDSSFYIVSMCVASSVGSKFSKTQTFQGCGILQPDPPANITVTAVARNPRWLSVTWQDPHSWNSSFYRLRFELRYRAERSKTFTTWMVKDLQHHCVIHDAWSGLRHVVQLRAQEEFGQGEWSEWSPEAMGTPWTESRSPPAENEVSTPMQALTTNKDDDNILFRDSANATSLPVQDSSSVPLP
Assay: receptor-ligand ELISA, blocking of IL-6 binding to IL-6R

- Binder: "clone 5 rabbit anti-IL-6R antibody (antibody, V domains shown) VH: QSLEESGGRLVTPGTPLTLTCTVSGIDLSRYWMSWVRQAPGKGLEWIGMISGGNTWYASWAKGRFTISKTSTTVDLKITSPTTEDTATYFCARGIDTGIATTFNLWGPGTLVTVSS VL: AQVLTQTPSSVSAAVGGTVTISCQSSQSVYNNNRLSWFQQKPGQPPKLLIYYASTLASGVPSRFKGSGSGTQFTLTISDLECDDAATYYCQGYYSGVINVFGGGTEVVVK"
  IC50: "0.38 µg/mL"
- Binder: "clone 37 rabbit anti-IL-6R antibody (antibody, V domains shown) VH: QSLEESGGRLVTPGTPLTLTCTVSGIDLSRYWMSWVRQAPGKGLEWIGMISGGNTWYASWAKGRFTISGTSTTVDLKIISPTTADTATYFCARGIDTGIATTFNLWGPGTLVTVSS VL: AQVLTQTPSSVSAAVGGTVTISCQSSQSVYSNNRLSWFQQKPGQPPKLLIYYTSTLASGVPSRFKGSGSGTQFTLTISDLECDDAATYYCQGYYSGVINVFGGGTEVVVK"
  IC50: "0.39 µg/mL"
- Binder: "clone 40 rabbit anti-IL-6R antibody (antibody, V domains shown) VH: QSLEESGGRLVSPGGSLTLTCTVSGVDLNTYAMGWVRQAPGKGLECIGVILGSGTTYYANWAKGRFTISKTSSTTVDLKMTNLTAADTATYFCAGDRYGSLEEVITPYFDLWGPGILVTVSS VL: DVVMTQTPASVEAAVGGTVTIKCQASQNIYNNLAWYQQKPAQPPKLLIYSASTLESGVPSRFKGSGSGTGYTLTISDLECADAATYYCQSAYYTSYIDHNVFGGGTEVVVE"
  IC50: "1.36 µg/mL"
- Binder: "clone 51 rabbit anti-IL-6R antibody (antibody, V domains shown) VH: QSVEESGGRLVTPGTPLTLTCTASGFDISSYSLQWVRQSPGKGLEYIGFIRPDGSAHYATWAKGRFTISKTSSTTVDLKMTSLTTEDTATYFCARDDISSDYFPNLWGPGTLVTVSS VL: QVLTQTPSPVSAAVGGTVTISCQASESVYNKNNLAWYQQKPGQPPKLLIYDASDLASGVSSRFKGSGSGTQFTLTISDLECADAATYYCAGGGSGNVYDFGGGTEVVVK"
  IC50: "0.8 µg/mL"
- Binder: "clone 42 rabbit anti-IL-6R antibody (antibody, V domains shown) VH: QSVEESGGRLVTPGTPLTLTCTVSGFSLSNYWMSWVRQAPGKGLEWIAFIGGGNTFYASWAKGRFTISKTSSTTVDLSMPSPTTEDTATYFCARGYGAPGYDLWGQGTLVTVSL VL: AIVMTQTPSSKSVPVGDTVTINCQASESVYTNNRLSWYQQKPGQPPKLLIYYASTLASGVPSRFKGSGSGTQFTLTISDVVCDNAATYYCVGYKSSDGDGTAFGGGTEVVVK"
  IC50: "0.34 µg/mL"
